biological target: T1, soluble human FcRn (human, UniProt P55899 24-297; P61769 21-119, biotinylated (Sulfo-NHS-LC-Biotin) in the ELISA; amine-coupled to CM5 chip in SPR); assay: SPR, pH 7.4
T1 construct: also called shFcRn; biotinylated shFcRn
pKd: −log10 of the molar value. Bridge positions count the residues as written; N and C are the ends. Square brackets hold non-standard residues; d marks the D form. Ends that are not written are not given here.
MEASURED_ATTRIBUTE: pKd

I = QRFCTGHFGGLYPCNGP-NH2 (disulfide 4-14 (inferred)) [SEQ ID NO:1]
II = QRFCTGHFG[dA]LYPCNGP-NH2 (disulfide 4-14 (inferred)) [Peptide No. 23]
Asked: Higher pKd between I and II ? Your answer should be the label attached to the chosen record.
Given back: I
